Consider the following compounds; for each one, report its log10 solubility at 4 h.
Method Summary: Solubility of the compound in FaSSIF at pH 6.5 measured after 4 hrs by HPLC-UV analysis
Format: ADME
Use the decimal logarithm of solubility at 4 h (µg/mL).

State, in one line, measured log10 solubility at 4 h of CC(C)(O)[C@H]1CC[C@H](NC(=O)c2cnc3nc(C4CC4)ccc3c2)CC1 2.15

State, in one line, measured log10 solubility at 4 h of O=C(N[C@H]1CCNC1=O)c1cnc2cc(C3CC3)ncc2c1 2.63

State, in one line, measured log10 solubility at 4 h of COc1cc2ncc(C(=O)N[C@H]3CC[C@H](C(C)(C)O)CC3)cc2cn1 1.93

State, in one line, measured log10 solubility at 4 h of CC(C)(O)C1CC2(CC(NC(=O)c3cnc4nc(C5CC5)ccc4c3)C2)C1 (stereo not given) 1.53

State, in one line, measured log10 solubility at 4 h of O=C(N[C@H]1CCNC1=O)c1cnc2nc(C3CC3)c(Cl)cc2c1 2.08

State, in one line, measured log10 solubility at 4 h of CC(C)(O)[C@H]1C[C@H](NC(=O)c2cnc3nc(C4CC4)ccc3c2)C1 2.00

State, in one line, measured log10 solubility at 4 h of C[C@]1(O)C[C@@H](NC(=O)c2cnc3nc(C4CC4)c(Cl)cc3c2)C1 1.49

State, in one line, measured log10 solubility at 4 h of O=C(N[C@H]1CC[C@H](N[C@H](CO)C(F)(F)F)CC1)c1cnc2cc(C3CC3)ncc2c1 2.00

State, in one line, measured log10 solubility at 4 h of CC(C)(O)[C@H]1CC2(C[C@H](NC(=O)c3cnc4nc(C5CC5)ccc4c3)C2)C1 (stereo not given in full) 1.54

* * *

Target Of Assay: Hematopoietic prostaglandin D synthase (Homo sapiens)
Sequence (O60760 whole entry): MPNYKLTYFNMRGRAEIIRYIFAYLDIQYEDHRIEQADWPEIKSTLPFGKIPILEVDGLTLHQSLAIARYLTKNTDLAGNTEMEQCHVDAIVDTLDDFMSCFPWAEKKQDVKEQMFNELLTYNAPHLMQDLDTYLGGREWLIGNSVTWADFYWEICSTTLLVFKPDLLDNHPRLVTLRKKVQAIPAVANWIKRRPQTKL
Method Summary: Inhibition of human H-PGDS expressed in Escherichia coli BL21 DE3 cells assessed as reduction in PGD2 production using PGH2 as substrate by RapidFire High Throughput Mass spectrometry
Consider the following molecules; for each one, report its pIC50.
// returns pIC50 (minus log10 of molar concentration), number only

State, in one line, measured pIC50 of CC(N[C@H]1CC[C@H](NC(=O)c2cnc3nc(C4CC4)ccc3c2)CC1)C(F)F (mixture of isomers) 7.96

State, in one line, measured pIC50 of O=C(N[C@H]1CC[C@H](N2CC(F)C2)CC1)c1cnc2cc(C3CC3)ncc2c1 7.46

State, in one line, measured pIC50 of O=C(N[C@H]1CCNC1=O)c1cnc2cc(N3CCC3)ncc2c1 7.92

State, in one line, measured pIC50 of C[C@]1(O)C[C@@H](NC(=O)c2cnc3nc(C4CC4)ccc3c2)C1 6.80

State, in one line, measured pIC50 of CC(C)(O)[C@H]1CC[C@H](NC(=O)c2cnc3nc(N4CCC4)ncc3c2)CC1 7.92

State, in one line, measured pIC50 of CC(C)(O)[C@H]1CC[C@H](NC(=O)c2cnc3nc(C4CC4)ccc3c2)CC1 8.03

State, in one line, measured pIC50 of CC(C)(O)[C@H]1CC[C@H](NC(=O)c2cnc3nc(C4CC4)c(Cl)cc3c2)CC1 8.33

State, in one line, measured pIC50 of CC(C)(O)[C@H]1C[C@H](NC(=O)c2cnc3cc(C4CC4)ncc3c2)C1 7.19

State, in one line, measured pIC50 of COc1ccc2cc(C(=O)N[C@H]3CC[C@H](C(C)(C)O)CC3)nnc2c1 5.10

State, in one line, measured pIC50 of C[C@H]1CCN1c1nc2ncc(C(=O)N[C@H]3CC[C@](C)(O)CC3)cc2cc1Cl 8.34

State, in one line, measured pIC50 of CC(C)(O)[C@H]1CC[C@H](NC(=O)c2cnc3nc(N4CCC4)c(Cl)cc3c2)CC1 8.62

State, in one line, measured pIC50 of O=C(N[C@H]1CC[C@H](N2CC(F)(F)C2)CC1)c1cnc2nc(C3CC3)ccc2c1 7.85

State, in one line, measured pIC50 of C[C@@H]1CCN1c1ccc2cc(C(=O)N[C@H]3CC[C@H](C(C)(C)O)CC3)cnc2n1 6.51

State, in one line, measured pIC50 of C[C@]1(O)C[C@@H](NC(=O)c2cnc3cc(C4CC4)ncc3c2)C1 6.54

State, in one line, measured pIC50 of O=C(N[C@H]1CCNC1=O)c1cnc2cc(C3CC3)ncc2c1 6.96

State, in one line, measured pIC50 of CC(C)(O)[C@H]1CC[C@H](NC(=O)c2cnc3ccccc3c2)CC1 5.74

State, in one line, measured pIC50 of CC(C)(O)[C@H]1CC[C@H](NC(=O)c2cnc3nc(N4CCC4)ccc3c2)CC1 8.28

State, in one line, measured pIC50 of CC(C)(O)[C@H]1C[C@H](NC(=O)c2cnc3nc(C4CC4)c(Cl)cc3c2)C1 8.41

State, in one line, measured pIC50 of C[C@H]1CCN1c1nc2ncc(C(=O)N[C@H]3C[C@@](C)(O)C3)cc2cc1Cl 8.30

State, in one line, measured pIC50 of COc1ncc2cc(C(=O)N[C@H]3CC[C@H](C(C)(C)O)CC3)cnc2n1 6.85

State, in one line, measured pIC50 of COc1ccc2cc(C(=O)N[C@H]3CC[C@H](C(C)(C)O)CC3)ccc2c1 5.89

State, in one line, measured pIC50 of COc1ccc2nc(C(=O)N[C@H]3CC[C@H](C(C)(C)O)CC3)cnc2c1 6.31

State, in one line, measured pIC50 of C[C@H]1CCN1c1nc2ncc(C(=O)N[C@H]3C[C@](C)(O)C3)cc2cc1Cl 8.30

State, in one line, measured pIC50 of CC(C)(O)[C@H]1CC[C@H](NC(=O)c2cnc3cc(N4CCC4)ncc3c2)CC1 8.41

State, in one line, measured pIC50 of CC(C)(O)[C@H]1CC[C@H](NC(=O)c2cnc3nc(C4CC4)ncc3c2)CC1 8.19

State, in one line, measured pIC50 of CC(C)(O)[C@H]1CC[C@H](NC(=O)c2cnc3cc(C4CC4)ncc3c2)CC1 7.85

State, in one line, measured pIC50 of CC(C)(O)[C@H]1CC[C@H](NC(=O)c2cnc3nc(N4CC(F)C4)ccc3c2)CC1 7.89

State, in one line, measured pIC50 of CC(C)(O)[C@H]1CC[C@H](NC(=O)c2cnc3cc(N4CC(F)C4)ncc3c2)CC1 7.92

State, in one line, measured pIC50 of CC(C)(O)[C@H]1C[C@H](NC(=O)c2cnc3nc(C4CC4)ccc3c2)C1 7.44

State, in one line, measured pIC50 of C[C@H]1CCN1c1cc2ncc(C(=O)N[C@H]3CCNC3=O)cc2cn1 7.43

State, in one line, measured pIC50 of O=C(N[C@H]1CC[C@H](N2CC(F)(F)C2)CC1)c1cnc2cc(C3CC3)ncc2c1 7.85

State, in one line, measured pIC50 of C[C@H]1CCN1c1nc2ncc(C(=O)N[C@H]3CCNC3=O)cc2cc1Cl 8.29

State, in one line, measured pIC50 of C[C@]1(O)C[C@@H](NC(=O)c2cnc3nc(C4CC4)c(Cl)cc3c2)C1 8.15

State, in one line, measured pIC50 of COc1cc2ncc(C(=O)N[C@H]3CC[C@H](C(C)(C)O)CC3)cc2cn1 7.35

State, in one line, measured pIC50 of C[C@]1(O)C[C@H](NC(=O)c2cnc3nc(C4CC4)ccc3c2)C1 6.52

State, in one line, measured pIC50 of O=C(N[C@H]1CCNC1=O)c1cnc2nc(N3CCC3)ccc2c1 7.15

State, in one line, measured pIC50 of COc1ccc2cc(C(=O)N[C@H]3CC[C@H](C(C)(C)O)CC3)cnc2n1 7.52

State, in one line, measured pIC50 of COc1ccc2c(c1)N=CN(C(=O)N[C@H]1CC[C@H](C(C)(C)O)CC1)C2 6.05

State, in one line, measured pIC50 of C[C@H]1CCN1c1nc2ncc(C(=O)N[C@H]3CC[C@H](C(C)(C)O)CC3)cc2cc1Cl 8.42
